Tested on: NCI-H1299
Protocol Notes: Compound was tested for human telomerase reverse transcriptase-SEAP (hTERT-SEAP) activity in non-small cell lung cancer H1299 cell at 2.2 uM concentration
Type: functional
Metric: Relative SEAP activity

{"columns": ["Smi", "Metric", "Measurement"],
 "data": [
  ["O=C1c2cccc(Sc3nccc(O)n3)c2C(=O)c2cccc(Sc3nccc(O)n3)c21", "Relative SEAP activity", "92%"],
  ["Nc1cccc(Sc2cccc3c2C(=O)c2cccc(Sc4cccc(N)c4)c2C3=O)c1", "Relative SEAP activity", "106%"],
  ["O=C(Oc1cccc2c1C(=O)c1cccc(OC(=O)c3ccccc3)c1C2=O)c1ccccc1", "Relative SEAP activity", "88%"],
  ["Nc1ccc(Sc2cccc3c2C(=O)c2cccc(Sc4ccc(N)cc4)c2C3=O)cc1", "Relative SEAP activity", "100%"]
]}

* * *

System: NCI-H1299
Protocol Notes: hTERT-SEAP (Human telomerase reverse transcriptase-SEAP) activity in non-small cell lung cancer H1299 cell at 2.1 uM concentration and level of cell viability determined in MTT assay
Type: functional
Metric: Relative viability (%)

{"columns": ["Smi", "Metric", "Unit Abbrev", "Measurement"],
 "data": [
  ["O=C(Cc1ccccc1)Oc1cccc2c1C(=O)c1cccc(OC(=O)Cc3ccccc3)c1C2=O", "Relative viability", "%", 91],
  ["Cc1ccccc1C(=O)Oc1cccc2c1C(=O)c1cccc(OC(=O)c3ccccc3C)c1C2=O", "Relative viability", "%", 72],
  ["Cc1cccc(C(=O)Oc2cccc3c2C(=O)c2cccc(OC(=O)c4cccc(C)c4)c2C3=O)c1", "Relative viability", "%", 26],
  ["Cc1ccc(C(=O)Oc2cccc3c2C(=O)c2cccc(OC(=O)c4ccc(C)cc4)c2C3=O)cc1", "Relative viability", "%", 61],
  ["O=C1c2cccc(SCCCCCCO)c2C(=O)c2cccc(SCCCCCCO)c21", "Relative viability", "%", 99]
]}

* * *

System: NCI-H1299
Protocol Notes: Compound was tested for human telomerase reverse transcriptase-SEAP (hTERT-SEAP) activity in non-small cell lung cancer H1299 cell at 22 uM concentration
Type: functional

{"columns": ["Smi", "Unit Abbrev", "Relative SEAP activity"],
 "data": [
  ["O=C1c2cccc(SCc3ccccc3)c2C(=O)c2cccc(SCc3ccccc3)c21", "%", 100],
  ["Nc1ccc(Sc2cccc3c2C(=O)c2cccc(Sc4ccc(N)cc4)c2C3=O)cc1", "%", 95],
  ["O=C1c2cccc(Sc3nccc(O)n3)c2C(=O)c2cccc(Sc3nccc(O)n3)c21", "%", 97],
  ["O=C(Oc1cccc2c1C(=O)c1cccc(OC(=O)c3ccccc3)c1C2=O)c1ccccc1", "%", 94],
  ["Nc1ccccc1Sc1cccc2c1C(=O)c1cccc(Sc3ccccc3N)c1C2=O", "%", 96],
  ["Nc1cccc(Sc2cccc3c2C(=O)c2cccc(Sc4cccc(N)c4)c2C3=O)c1", "%", 109],
  ["COc1ccc(CSc2cccc3c2C(=O)c2cccc(SCc4ccc(OC)cc4)c2C3=O)cc1", "%", 96],
  ["Cc1ccc(Sc2cccc3c2C(=O)c2cccc(Sc4ccc(C)cc4)c2C3=O)cc1", "%", 103],
  ["O=C1c2cccc(SCCc3ccccc3)c2C(=O)c2cccc(SCCc3ccccc3)c21", "%", 102]
]}

* * *

Tested on: NCI-H1299
Protocol Notes: Compound was tested for human telomerase reverse transcriptase-SEAP (hTERT-SEAP) activity in non-small cell lung cancer H1299 cell at 2.2 uM concentration
Format: functional

{"columns": ["Smi", "Assay Target", "Unit Abbrev", "Relative SEAP activity"],
 "data": [
  ["Cc1ccc(Sc2cccc3c2C(=O)c2cccc(Sc4ccc(C)cc4)c2C3=O)cc1", "NCI-H1299", "%", 117],
  ["Nc1ccccc1Sc1cccc2c1C(=O)c1cccc(Sc3ccccc3N)c1C2=O", "NCI-H1299", "%", 108],
  ["COc1ccc(CSc2cccc3c2C(=O)c2cccc(SCc4ccc(OC)cc4)c2C3=O)cc1", "NCI-H1299", "%", 92],
  ["O=C1c2cccc(SCc3ccccc3)c2C(=O)c2cccc(SCc3ccccc3)c21", "NCI-H1299", "%", 97],
  ["O=C1c2cccc(SCCc3ccccc3)c2C(=O)c2cccc(SCCc3ccccc3)c21", "NCI-H1299", "%", 108]
]}

* * *

System: BJ
Protocol Notes: Compound was tested for human telomerase reverse transcriptase-SEAP (hTERT-SEAP) activity in immortalized hTERT-BJI at 210.0 uM concentration
Assay type: functional

{"columns": ["Smi", "Relative SEAP activity, %"],
 "data": [
  ["O=C1c2cccc(SCCCCCCO)c2C(=O)c2cccc(SCCCCCCO)c21", 75],
  ["Cc1ccccc1C(=O)Oc1cccc2c1C(=O)c1cccc(OC(=O)c3ccccc3C)c1C2=O", 94],
  ["Cc1cccc(C(=O)Oc2cccc3c2C(=O)c2cccc(OC(=O)c4cccc(C)c4)c2C3=O)c1", 86],
  ["Cc1ccc(C(=O)Oc2cccc3c2C(=O)c2cccc(OC(=O)c4ccc(C)cc4)c2C3=O)cc1", 99],
  ["O=C(Cc1ccccc1)Oc1cccc2c1C(=O)c1cccc(OC(=O)Cc3ccccc3)c1C2=O", 100]
]}

* * *

Test system: BJ
Protocol Notes: Compound was tested for human telomerase reverse transcriptase-SEAP (hTERT-SEAP) activity in immortalized hTERT-BJI at 220.0 uM concentration
Type: functional
Catalogue of Relative SEAP activity values

{"columns": ["Smi", "Assay Target", "Relative SEAP activity / %"],
 "data": [
  ["O=C1c2cccc(SCCc3ccccc3)c2C(=O)c2cccc(SCCc3ccccc3)c21", "BJ", 110],
  ["Nc1ccccc1Sc1cccc2c1C(=O)c1cccc(Sc3ccccc3N)c1C2=O", "BJ", 115],
  ["COc1ccc(CSc2cccc3c2C(=O)c2cccc(SCc4ccc(OC)cc4)c2C3=O)cc1", "BJ", 118],
  ["O=C1c2cccc(SCc3ccccc3)c2C(=O)c2cccc(SCc3ccccc3)c21", "BJ", 87],
  ["O=C(Oc1cccc2c1C(=O)c1cccc(OC(=O)c3ccccc3)c1C2=O)c1ccccc1", "BJ", 84],
  ["O=C1c2cccc(Sc3nccc(O)n3)c2C(=O)c2cccc(Sc3nccc(O)n3)c21", "BJ", 145],
  ["Cc1ccc(Sc2cccc3c2C(=O)c2cccc(Sc4ccc(C)cc4)c2C3=O)cc1", "BJ", 87],
  ["Nc1ccc(Sc2cccc3c2C(=O)c2cccc(Sc4ccc(N)cc4)c2C3=O)cc1", "BJ", 26],
  ["Nc1cccc(Sc2cccc3c2C(=O)c2cccc(Sc4cccc(N)c4)c2C3=O)c1", "BJ", 8]
]}

* * *

Test system: NCI-H1299
Protocol Notes: Compound was tested for human telomerase reverse transcriptase-SEAP (hTERT-SEAP) activity in non-small cell lung cancer H1299 cell at 2.1 uM concentration
Assay type: functional
Catalogue of Relative SEAP activity values

{"columns": ["Smi", "Unit Abbrev", "Relative SEAP activity"],
 "data": [
  ["Cc1cccc(C(=O)Oc2cccc3c2C(=O)c2cccc(OC(=O)c4cccc(C)c4)c2C3=O)c1", "%", 104],
  ["Cc1ccc(C(=O)Oc2cccc3c2C(=O)c2cccc(OC(=O)c4ccc(C)cc4)c2C3=O)cc1", "%", 98],
  ["Cc1ccccc1C(=O)Oc1cccc2c1C(=O)c1cccc(OC(=O)c3ccccc3C)c1C2=O", "%", 97],
  ["O=C1c2cccc(SCCCCCCO)c2C(=O)c2cccc(SCCCCCCO)c21", "%", 110],
  ["O=C(Cc1ccccc1)Oc1cccc2c1C(=O)c1cccc(OC(=O)Cc3ccccc3)c1C2=O", "%", 98]
]}

Data origin, for the record: ChEMBL document CHEMBL1144896
